- TARGET_OR_SYSTEM: HLA-A*01:01
- TEST_NAME: IEDB peptide-MHC binding, purified MHC/direct/fluorescence; filed as Kd, often an IC50 or EC50 that approximates it; bounds were set here for any values at or beyond the usual limits of such assays
- TEST_PARAMETERS: source organism: Pasteurella multocida
ENDPOINT_LABEL: Kd

Query the reported Kd for HLA-A*01:01; item: LMAEDLANV
≥ 20 µM

----------
- TARGET_OR_SYSTEM: HLA-A*11:01
- TEST_NAME: IEDB peptide-MHC binding, purified MHC/direct/fluorescence; filed as Kd, often an IC50 or EC50 that approximates it; bounds were set here for any values at or beyond the usual limits of such assays
- TEST_PARAMETERS: source organism: Burkholderia mallei
ENDPOINT_LABEL: Kd

RVYRRRLAQ ≥ 20000 nM

Looking for the measured Kd of AQHAPDAAK , can you help?
64.6 nM

----------
- TARGET_OR_SYSTEM: HLA-A*23:01
- TEST_NAME: IEDB peptide-MHC binding, purified MHC/competitive/radioactivity; filed as Kd, often an IC50 or EC50 that approximates it; bounds were set here for any values at or beyond the usual limits of such assays
- TEST_PARAMETERS: source organism: Lassa virus GA391
ENDPOINT_LABEL: Kd

Looking for the measured Kd of VFRTSTPKVV , can you help?
≥ 70 µM

----------
- TARGET_OR_SYSTEM: HLA-A*26:01
- TEST_NAME: IEDB peptide-MHC binding, purified MHC/competitive/fluorescence; filed as Kd, often an IC50 or EC50 that approximates it; bounds were set here for any values at or beyond the usual limits of such assays
- TEST_PARAMETERS: source organism: Vibrio vulnificus YJ016
ENDPOINT_LABEL: Kd

Looking for the measured Kd of LTDEQKNAV , can you help?
≥ 20 µM

----------
- TARGET_OR_SYSTEM: HLA-A*02:03
- TEST_NAME: IEDB peptide-MHC binding, purified MHC/competitive/radioactivity; filed as Kd, often an IC50 or EC50 that approximates it; bounds were set here for any values at or beyond the usual limits of such assays
- TEST_PARAMETERS: source organism: SARS coronavirus Tor2
ENDPOINT_LABEL: Kd (nM)
Write the answer as a number in nM, unit excluded.

The following sequences have reported results that may help.
TLGVYDYLV 936
MLLTFLTSL 4.84
YLSSVLLAL 0.308
ALYKGFQFI 3.32
QLMCQPILL 11.9

Looking for the measured Kd of IAMWLLLLSI , can you help?
1900

And the next one, FLNGSCGSV ?
0.571

And the next one, NLLLLFVTI ?
1600

And the next one, FLAFLLFLV ?
58.3

And the next one, GLMWLSYFV ?
0.82

And the next one, LMLKATLLCV ?
20.9

And the next one, IMLIIFWFSL ?
14900

And the next one, VLAWLYAAV ?
0.311

----------
- TARGET_OR_SYSTEM: HLA-A*68:02
- TEST_NAME: IEDB peptide-MHC binding, purified MHC/competitive/fluorescence; filed as Kd, often an IC50 or EC50 that approximates it; bounds were set here for any values at or beyond the usual limits of such assays
- TEST_PARAMETERS: source organism: Vibrio vulnificus
ENDPOINT_LABEL: Kd

Looking for the measured Kd of DEWECTRDD , can you help?
≥ 20 µM
